Measured koff, listed per entry for reference.
Biological target: T1, human galectin-10-His (recombinant human galectin-10 with TEV-cleavable N-terminal His-tag) (human)
T1 construct: SEC-MALLS: dimer in solution; also called Gal10-His; humanGal10-His
T1 chain: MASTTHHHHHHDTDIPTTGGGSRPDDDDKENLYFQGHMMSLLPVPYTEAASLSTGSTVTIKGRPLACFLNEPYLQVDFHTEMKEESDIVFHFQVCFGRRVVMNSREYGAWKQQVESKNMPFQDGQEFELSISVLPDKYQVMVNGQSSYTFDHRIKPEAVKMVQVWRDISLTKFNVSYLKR
Test: BLI Octet RED96, galectin-10-His on anti-Penta-His tips, scFv periplasmic extract 1/10
measured parameter: koff (s⁻¹)

[[record]]
binder = "scFv 6E10 (periplasmic extract, Myc-tagged) (scFv, not shown: small tags and cut ends, also called 6E010) scFv: QLQLVESGGGLVQPGGSLRLSCAASGFTFSSYWMYWVRQAPGKGLEWVSAINTGGGSTYYADSVKGRFTISRDNAKNTLYLQMNSLKPEDTALYYCARAGSGVAGTGYDYWGQGTQVTVSSGGGGSGGGGSGGGGSQPVLNQPSAVSVSLGQTARITCQGGNFGYYYVSWYQQKPGQAPVLVIYRDSGRPSGIPERFSGSSSGDTATLTISGAQAEDEADYYCQSGSSSDNAVFGGGTHLTVL"
readout_units = "s⁻¹"
test_value = 0.016

[[record]]
binder = "scFv 2C07 (periplasmic extract, Myc-tagged) (scFv, not shown: small tags and cut ends) scFv: ELQLVESGGGLVQPGGSLRLSCAASGFTFSSYAMSWVRQAPGKGLEWVSNINSGGGSTGYADSVKGRFTISRDNAKNTLYLQMNSLKPEDMAVYYCAKYLRTYYPNAAFGMDYWGKGTLVTVSSGGGGSGGGGSGGGGSQAVLTQPSAVSVSLGQTARITCQGGNFGRYYASWYQQKPGQAPVLVIYRDSERPSGIPERFSGSSSGDTATLTISGAQAEDEADYYCQSGRSSDNAVFGGGTHLTGL"
readout_units = "s⁻¹"
test_value = 0.0067

